# SYSTEM: Interstitial collagenase (Homo sapiens)
# Sequence (P03956 whole entry): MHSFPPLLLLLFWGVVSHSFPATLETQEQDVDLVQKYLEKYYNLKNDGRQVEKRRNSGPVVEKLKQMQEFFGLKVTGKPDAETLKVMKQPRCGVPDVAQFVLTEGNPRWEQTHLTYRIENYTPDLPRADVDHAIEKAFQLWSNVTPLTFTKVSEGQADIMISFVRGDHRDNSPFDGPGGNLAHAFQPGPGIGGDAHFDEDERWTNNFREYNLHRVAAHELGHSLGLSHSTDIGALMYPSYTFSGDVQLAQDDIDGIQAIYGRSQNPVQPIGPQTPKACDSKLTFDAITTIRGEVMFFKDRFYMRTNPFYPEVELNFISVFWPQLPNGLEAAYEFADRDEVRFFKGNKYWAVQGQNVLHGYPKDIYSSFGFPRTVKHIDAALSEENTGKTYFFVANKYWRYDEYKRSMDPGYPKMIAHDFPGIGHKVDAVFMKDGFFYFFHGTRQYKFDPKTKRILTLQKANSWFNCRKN
ENDPOINT_LABEL: Ki (µM)

CHEMICAL_STRING	ENDPOINT_LABEL	QUANTITATIVE_RESULT
CNC(=O)[C@@H](NC(=O)[C@H](CCCCOc1ccccc1)CC(=O)NO)C(C)(C)C	Ki	0.003
CC(C)(C)[C@H](NC(=O)[C@H](CCCCOc1ccccc1)CC(=O)NO)C(=O)NCCC(=O)O	Ki	0.14
CC(C)(C)[C@H](NC(=O)[C@H](CCCCOc1ccc(Cl)cc1)CC(=O)NO)C(=O)NCCc1ccc(S(N)(=O)=O)cc1	Ki	0.061
CNC(=O)[C@@H](NC(=O)[C@H](CCCCOc1ccc(Cl)c(Cl)c1)CC(=O)NO)C(C)(C)C	Ki	0.095
CNC(=O)[C@H](Cc1ccccc1)NC(=O)[C@H](CCCCO)CC(=O)NO	Ki	0.064
CC(C)(C)[C@H](NC(=O)[C@H](CCCCOc1ccc(Cl)cc1)CC(=O)NO)C(=O)NCCCN1CCOCC1	Ki	0.01
CNC(=O)[C@H](Cc1ccccc1)NC(=O)[C@H](CCCC(=O)NCCc1ccccc1)CC(=O)NO	Ki	1.3
CCCCCc1ccc(OCCCC[C@H](CC(=O)NO)C(=O)N[C@H](C(=O)NC)C(C)(C)C)cc1	Ki	1.9
CC(C)(C)[C@H](NC(=O)[C@H](CCCCOc1ccc(Cl)cc1)CC(=O)NO)C(=O)NCCc1ccccn1	Ki	0.08
CC(C)(C)[C@H](NC(=O)[C@H](CCCCOc1ccccc1)CC(=O)NO)C(=O)NCCCC(=O)O	Ki	0.062
CNC(=O)[C@@H](NC(=O)[C@H](CCCCOc1ccc(C(C)(C)C)cc1)CC(=O)NO)C(C)(C)C	Ki	0.35
